Please go through the items and note down their Cmax.
Experiment: in vivo pharmacokinetic experiment in mice
Parameters: species or system ICR mice
Details: male, ICR, mouse; oral intragastric administration 10 mg/kg, single, plasma
Could you give me the number in ng/mL? Just the number is fine.

Indicate the recorded Cmax value for this compound: C[C@H]1C[C@H]2[C@H](CC[C@@H]3[C@@H]2CC[C@]2(C)[C@@H](C(=O)Cn4ncnn4)CC[C@@H]32)C[C@]1(C)O
2580

Indicate the recorded Cmax value for this compound: C[C@H]1C[C@H]2[C@H](CC[C@@H]3[C@@H]2CC[C@]2(C)[C@@H](C(=O)Cn4cc(C#N)cn4)CC[C@@H]32)C[C@]1(C)O
1650

Indicate the recorded Cmax value for this compound: C[C@@]1(O)CC[C@H]2[C@H](CC[C@@H]3[C@@H]2CC[C@]2(C)[C@@H](C(=O)Cn4cc(C#N)cn4)CC[C@@H]32)C1 [Sage-217, reference compound]
1510

Indicate the recorded Cmax value for this compound: C[C@@H]1C[C@H](C(=O)Cn2ncnn2)[C@@]2(C)CC[C@H]3[C@@H](CC[C@@H]4C[C@](C)(O)[C@@H](C)C[C@@H]43)[C@H]12
3480

---

Assay: in vivo pharmacokinetic experiment in mice
Design: species or system ICR mice
Conditions: male, ICR, mouse; oral intragastric administration 10 mg/kg, single, plasma
OBSERVED PROPERTY: half-life (h)
Could you give me the number in h? Just the number is fine.

Indicate the recorded half-life value for this molecule: C[C@@H]1C[C@H](C(=O)Cn2ncnn2)[C@@]2(C)CC[C@H]3[C@@H](CC[C@@H]4C[C@](C)(O)[C@@H](C)C[C@@H]43)[C@H]12
2.35

Indicate the recorded half-life value for this molecule: C[C@H]1C[C@H]2[C@H](CC[C@@H]3[C@@H]2CC[C@]2(C)[C@@H](C(=O)Cn4ncnn4)CC[C@@H]32)C[C@]1(C)O
2.59

---

Test: in vivo pharmacokinetic experiment in mice
Design: species or system ICR mice
Conditions: mouse; oral intragastric administration 10 mg/kg, single, plasma
OBSERVED PROPERTY: AUC(0-t) (ng·h/mL)
Could you give me the number in ng·h/mL? Just the number is fine.

Indicate the recorded AUC(0-t) value for this compound: C[C@@H]1C[C@H](C(=O)Cn2cc(C#N)cn2)[C@@]2(C)CC[C@H]3[C@@H](CC[C@@H]4C[C@](C)(O)[C@@H](C)C[C@@H]43)[C@H]12
16600

---

Please go through the items and note down their EC50.
Biological target: GABAa receptor (α1β2γ2) (Homo sapiens, UniProt P14867+P47870)
Sequence (P14867 28-456): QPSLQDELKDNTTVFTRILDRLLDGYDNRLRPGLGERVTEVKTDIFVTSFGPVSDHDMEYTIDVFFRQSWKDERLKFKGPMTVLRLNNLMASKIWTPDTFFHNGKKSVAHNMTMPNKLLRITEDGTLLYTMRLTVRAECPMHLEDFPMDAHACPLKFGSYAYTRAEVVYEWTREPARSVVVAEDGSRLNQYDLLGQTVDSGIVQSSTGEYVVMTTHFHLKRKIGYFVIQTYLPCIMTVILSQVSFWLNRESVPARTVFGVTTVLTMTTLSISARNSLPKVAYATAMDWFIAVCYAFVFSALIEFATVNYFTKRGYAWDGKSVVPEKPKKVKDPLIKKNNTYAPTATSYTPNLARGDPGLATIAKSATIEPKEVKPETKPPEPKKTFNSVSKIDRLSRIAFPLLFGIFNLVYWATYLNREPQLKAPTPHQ
Sequence (P47870 25-512 limits assumed): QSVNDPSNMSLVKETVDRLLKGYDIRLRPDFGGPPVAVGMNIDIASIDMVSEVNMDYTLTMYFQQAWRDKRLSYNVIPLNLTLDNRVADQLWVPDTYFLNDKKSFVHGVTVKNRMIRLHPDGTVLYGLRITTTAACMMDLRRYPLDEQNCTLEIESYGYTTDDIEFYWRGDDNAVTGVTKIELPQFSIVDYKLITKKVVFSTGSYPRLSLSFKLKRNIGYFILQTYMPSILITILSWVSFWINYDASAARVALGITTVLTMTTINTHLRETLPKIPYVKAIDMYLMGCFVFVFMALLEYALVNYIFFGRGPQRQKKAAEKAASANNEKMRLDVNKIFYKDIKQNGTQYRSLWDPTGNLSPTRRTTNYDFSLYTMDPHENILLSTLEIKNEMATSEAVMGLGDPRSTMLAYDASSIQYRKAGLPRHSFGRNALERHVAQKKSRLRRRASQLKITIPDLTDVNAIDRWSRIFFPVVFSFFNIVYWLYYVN
Sequence (P18507 40-475 partner): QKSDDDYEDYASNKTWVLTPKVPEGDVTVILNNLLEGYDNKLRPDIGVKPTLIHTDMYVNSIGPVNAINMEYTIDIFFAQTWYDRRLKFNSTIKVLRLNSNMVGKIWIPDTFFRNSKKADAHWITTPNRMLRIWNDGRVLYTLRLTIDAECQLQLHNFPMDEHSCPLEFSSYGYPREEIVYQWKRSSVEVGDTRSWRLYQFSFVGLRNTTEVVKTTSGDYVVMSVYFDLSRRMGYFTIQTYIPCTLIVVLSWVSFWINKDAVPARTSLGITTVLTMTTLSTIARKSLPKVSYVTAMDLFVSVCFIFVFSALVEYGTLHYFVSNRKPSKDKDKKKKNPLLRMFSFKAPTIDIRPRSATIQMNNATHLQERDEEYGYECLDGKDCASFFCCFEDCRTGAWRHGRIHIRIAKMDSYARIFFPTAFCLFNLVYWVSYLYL
Assay: in vitro GABAa receptor (α1β2γ2) cellular activity assay, manual whole-cell patch clamp, enhancement of currents induced by 1 µM GABA
Assay type: cell-based
Settings: positive modulator enhancing GABAa receptor currents induced by 1 µM GABA; CHO cells; read-out: EC50
Param answer (str): number followed by unit.

Indicate the recorded EC50 value for this molecule: C[C@@H]1C[C@H](C(=O)Cn2ncnn2)[C@@]2(C)CC[C@H]3[C@@H](CC[C@@H]4C[C@](C)(O)[C@@H](C)C[C@@H]43)[C@H]12
40 nM

Indicate the recorded EC50 value for this molecule: C[C@H]1C[C@H]2[C@H](CC[C@@H]3[C@@H]2CC[C@]2(C)[C@@H](C(=O)Cn4ncnn4)CC[C@@H]32)C[C@]1(C)O
110 nM

Indicate the recorded EC50 value for this molecule: C[C@@H]1C[C@H](C(=O)Cn2cc(C#N)cn2)[C@@]2(C)CC[C@H]3[C@@H](CC[C@@H]4C[C@](C)(O)[C@@H](C)C[C@@H]43)[C@H]12
22 nM
